From: patent US20220242950A1

- Assayed system: T1, human IL1RAP on the cell surface (human, UniProt Q9NPH3 21-570)
- T1 sequence (looked up): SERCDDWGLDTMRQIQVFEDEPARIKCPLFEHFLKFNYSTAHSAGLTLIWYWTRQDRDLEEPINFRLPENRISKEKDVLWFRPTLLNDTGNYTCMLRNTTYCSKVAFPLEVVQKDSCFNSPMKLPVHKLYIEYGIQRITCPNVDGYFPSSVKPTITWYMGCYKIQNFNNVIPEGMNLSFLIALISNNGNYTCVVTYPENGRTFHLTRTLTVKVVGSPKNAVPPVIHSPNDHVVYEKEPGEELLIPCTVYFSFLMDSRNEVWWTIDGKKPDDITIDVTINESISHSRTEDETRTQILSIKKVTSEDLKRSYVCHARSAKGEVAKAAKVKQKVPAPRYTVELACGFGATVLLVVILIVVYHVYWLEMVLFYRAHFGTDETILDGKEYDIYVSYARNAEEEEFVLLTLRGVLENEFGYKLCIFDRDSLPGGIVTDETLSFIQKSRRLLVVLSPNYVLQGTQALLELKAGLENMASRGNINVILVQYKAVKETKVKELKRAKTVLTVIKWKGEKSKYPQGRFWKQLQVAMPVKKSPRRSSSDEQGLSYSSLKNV
- Assay comment: cell-based or functional assay
Readout kind: IC50 of IL-1β signaling (HEK-Blue assay) (nM)

Binder | Reported value
h48D2 VH4:VL4 (antibody, human IgG1, kappa, L234A L235A, V domains shown, Humanized; also called VL4:VH4) VH: QVQLQESGPGLVKPSETLSLTCTVSGPSLSHFDITWIRQPPGKGLEWIGTISPGVSTYYASWAKSRFTISVDTSKNQFSLKLTSVTAADTATYYCARGGVGSSWKAFDLWGPGTLVTVSS VL: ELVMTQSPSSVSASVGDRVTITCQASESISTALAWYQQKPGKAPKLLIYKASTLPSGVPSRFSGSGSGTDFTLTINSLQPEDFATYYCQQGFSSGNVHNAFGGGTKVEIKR | 4.67
h48D2 VH2:VL4 (antibody, human IgG1, kappa, L234A L235A, V domains shown, Humanized; also called VL4:VH2) VH: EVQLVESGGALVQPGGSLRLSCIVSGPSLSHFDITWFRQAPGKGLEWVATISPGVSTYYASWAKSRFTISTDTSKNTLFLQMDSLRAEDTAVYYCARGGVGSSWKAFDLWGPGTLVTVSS VL: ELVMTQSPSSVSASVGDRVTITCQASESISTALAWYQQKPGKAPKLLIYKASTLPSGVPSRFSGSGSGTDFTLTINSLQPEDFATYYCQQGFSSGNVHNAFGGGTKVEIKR | 1.36
h48D2 VH4:VL3 (antibody, human IgG1, kappa, L234A L235A, V domains shown, Humanized; also called VL3:VH4) VH: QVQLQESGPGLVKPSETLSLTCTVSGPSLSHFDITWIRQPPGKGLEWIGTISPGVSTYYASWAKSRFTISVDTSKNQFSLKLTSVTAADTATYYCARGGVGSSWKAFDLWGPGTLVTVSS VL: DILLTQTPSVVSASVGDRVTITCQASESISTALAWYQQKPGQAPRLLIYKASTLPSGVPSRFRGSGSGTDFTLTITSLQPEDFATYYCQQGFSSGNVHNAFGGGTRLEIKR | 2.97
h48D2 VH3:VL2 (antibody, human IgG1, kappa, L234A L235A, V domains shown, Humanized; also called VL2:VH3) VH: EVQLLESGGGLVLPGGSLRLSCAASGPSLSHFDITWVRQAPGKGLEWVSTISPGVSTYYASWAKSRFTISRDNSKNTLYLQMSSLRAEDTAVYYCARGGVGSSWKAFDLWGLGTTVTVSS VL: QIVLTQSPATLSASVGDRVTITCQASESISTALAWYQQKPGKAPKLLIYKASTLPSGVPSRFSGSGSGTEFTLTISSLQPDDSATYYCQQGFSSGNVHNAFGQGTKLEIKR | 9.11
